Ref: the supplement of paper PMC10126150

System: ATP;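 note: ATP exposure 15 min at 22 °C before imaging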
Assay text: switch fluorescence ratio, 500 uM ATP over buffer (Cy3 cluster intensity, sum of 5 cycles each) (fold (ratio)); higher = stronger signal-on switching upon ATP binding; sequences stand for … in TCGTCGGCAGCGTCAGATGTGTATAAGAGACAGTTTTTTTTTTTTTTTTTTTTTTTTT…TC
Condition description: aptamer strand: ATP DNA aptamer (quencher-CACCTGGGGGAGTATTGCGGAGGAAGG + anchor), 100 nM annealed; ATP concentration: 500 uM
The reader will find reported switch fluorescence ratio values listed item by item below.

// known answers, use as guide
>  <Sequence data>
ATATCGGTAG

>  <switch fluorescence ratio>
0.999

$$$$
>  <Sequence data>
CGAGGGTGAG

>  <switch fluorescence ratio>
1.01

$$$$
>  <Sequence data>
GGGATGCGTG

>  <switch fluorescence ratio>
0.991

$$$$
>  <Sequence data>
AATGCGCCAG

>  <switch fluorescence ratio>
1.03

$$$$
>  <Sequence data>
TTTACTTGCG

>  <switch fluorescence ratio>
0.976

$$$$

Recorded switch fluorescence ratio (sequence `ATTGATTCTT` ): 1.01

Recorded switch fluorescence ratio (sequence `TCATTTGGCA` ): 0.983

Recorded switch fluorescence ratio (sequence `GCGGTGGCGG` ): 0.987

Recorded switch fluorescence ratio (sequence `CAGGATTGGC` ): 1.07

Recorded switch fluorescence ratio (sequence `CGGGAGAACC` ): 0.998

Recorded switch fluorescence ratio (sequence `AGAGGCTGAT` ): 0.983

Recorded switch fluorescence ratio (sequence `GCGGTGCTGG` ): 0.991

Recorded switch fluorescence ratio (sequence `CTTAGGGGAT` ): 1.03

Recorded switch fluorescence ratio (sequence `GTTTAGGGTA` ): 1.01

Recorded switch fluorescence ratio (sequence `TTGATATGGT` ): 0.997

Recorded switch fluorescence ratio (sequence `ATATATCGTG` ): 0.995

Recorded switch fluorescence ratio (sequence `GATTGGATGA` ): 0.992

Recorded switch fluorescence ratio (sequence `CGGCCTTAGA` ): 0.985

Recorded switch fluorescence ratio (sequence `TGGGATTGTT` ): 1

Recorded switch fluorescence ratio (sequence `CGGCGAATCC` ): 1.03

Recorded switch fluorescence ratio (sequence `GGGAAGGTAG` ): 0.995

Recorded switch fluorescence ratio (sequence `TTCAGGGTTC` ): 0.966

Recorded switch fluorescence ratio (sequence `CGGGATGGCT` ): 0.996

Recorded switch fluorescence ratio (sequence `TCCGGGCCCA` ): 1.04

Recorded switch fluorescence ratio (sequence `GGTTTTTCGG` ): 1.04

Recorded switch fluorescence ratio (sequence `GATGAGTTGA` ): 0.988

----------
Tested on: ATP;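 note: ATP exposure 15 min at 22 °C before imaging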
Assay text: switch fluorescence ratio, 500 uM ATP over buffer (Cy3 cluster intensity, sum of 5 cycles each) (fold (ratio)); higher = stronger signal-on switching upon ATP binding; sequences stand for … in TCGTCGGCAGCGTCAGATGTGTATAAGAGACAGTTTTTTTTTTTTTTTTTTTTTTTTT…TC
Condition description: aptamer strand: ATP DNA aptamer (quencher-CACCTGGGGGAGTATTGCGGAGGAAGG + anchor), 100 nM annealed; ATP concentration: 500 uM
Measurement name: switch fluorescence ratio

>  <Sequence data>
TTGTTGGCGG

>  <System tested>
ATP;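 note: ATP exposure 15 min at 22 °C before imaging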

>  <switch fluorescence ratio>
0.994

$$$$

Recorded switch fluorescence ratio (sequence `TGGGCGTCGG` ): 0.999

Recorded switch fluorescence ratio (sequence `ATCGGGGTCG` ): 1.05

Recorded switch fluorescence ratio (sequence `GGGGGGGACT` ): 1

Recorded switch fluorescence ratio (sequence `TGGGGACAAA` ): 0.986

Recorded switch fluorescence ratio (sequence `CGTTTGTATC` ): 1.02

Recorded switch fluorescence ratio (sequence `CAAAAAGTAG` ): 1.01

Recorded switch fluorescence ratio (sequence `GTTGCCAAAG` ): 0.973

Recorded switch fluorescence ratio (sequence `GAGGAACCTG` ): 1.09

Recorded switch fluorescence ratio (sequence `GTGGCCGGGT` ): 1.03

Recorded switch fluorescence ratio (sequence `CGCTTTGGCG` ): 0.959

Recorded switch fluorescence ratio (sequence `AAAGGATTTA` ): 1.02

Recorded switch fluorescence ratio (sequence `CAGCCGACCG` ): 1.16

Recorded switch fluorescence ratio (sequence `GTAGAAACGC` ): 0.998

Recorded switch fluorescence ratio (sequence `TTTATGTCTA` ): 1.02

Recorded switch fluorescence ratio (sequence `TGGGCGACCG` ): 0.99

Recorded switch fluorescence ratio (sequence `GCATTGGTAT` ): 0.981

----------
Tested on: ATP;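 note: ATP exposure 15 min at 22 °C before imaging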
Assay text: switch fluorescence ratio, 500 uM ATP over buffer (Cy3 cluster intensity, sum of 5 cycles each) (fold (ratio)); higher = stronger signal-on switching upon ATP binding; sequences stand for … in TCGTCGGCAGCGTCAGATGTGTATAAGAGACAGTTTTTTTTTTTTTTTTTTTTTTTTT…TC
Condition description: aptamer strand: ATP DNA aptamer (quencher-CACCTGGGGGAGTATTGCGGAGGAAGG + anchor), 100 nM annealed; ATP concentration: 500 uM
The reader will find reported switch fluorescence ratio values listed item by item below.
No unit in the answer, please; the number alone is enough.

// known answers, use as guide
>  <Sequence data>
TTTTATAAGT

>  <System tested>
ATP;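 note: ATP exposure 15 min at 22 °C before imaging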

>  <switch fluorescence ratio>
1.03

$$$$
>  <Sequence data>
ATGGGGCCAA

>  <System tested>
ATP;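 note: ATP exposure 15 min at 22 °C before imaging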

>  <switch fluorescence ratio>
1.03

$$$$
>  <Sequence data>
AATTTCACGG

>  <System tested>
ATP;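 note: ATP exposure 15 min at 22 °C before imaging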

>  <switch fluorescence ratio>
1.03

$$$$
>  <Sequence data>
GAATTAGAGA

>  <System tested>
ATP;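 note: ATP exposure 15 min at 22 °C before imaging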

>  <switch fluorescence ratio>
1.03

$$$$
>  <Sequence data>
CAGGGTGCAT

>  <System tested>
ATP;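 note: ATP exposure 15 min at 22 °C before imaging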

>  <switch fluorescence ratio>
1.02

$$$$
>  <Sequence data>
AACAGCTGTG

>  <System tested>
ATP;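 note: ATP exposure 15 min at 22 °C before imaging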

>  <switch fluorescence ratio>
0.998

$$$$
>  <Sequence data>
TATTCGTTTT

>  <System tested>
ATP;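 note: ATP exposure 15 min at 22 °C before imaging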

>  <switch fluorescence ratio>
0.989

$$$$
>  <Sequence data>
GCTACCAAGC

>  <System tested>
ATP;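 note: ATP exposure 15 min at 22 °C before imaging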

>  <switch fluorescence ratio>
1.07

$$$$

Recorded switch fluorescence ratio (sequence `GAACATTGGT` ): 0.998

Recorded switch fluorescence ratio (sequence `TGGGGGCATT` ): 1.01

Recorded switch fluorescence ratio (sequence `TCGGACGGGC` ): 1.26

Recorded switch fluorescence ratio (sequence `TTCGCTGTTC` ): 1.28

----------
Tested on: ATP;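 note: ATP exposure 15 min at 22 °C before imaging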
Assay text: switch fluorescence ratio, 500 uM ATP over buffer (Cy3 cluster intensity, sum of 5 cycles each) (fold (ratio)); higher = stronger signal-on switching upon ATP binding; sequences stand for … in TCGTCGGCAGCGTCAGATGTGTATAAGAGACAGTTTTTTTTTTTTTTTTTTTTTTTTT…TC
Condition description: aptamer strand: ATP DNA aptamer (quencher-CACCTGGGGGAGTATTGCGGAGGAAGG + anchor), 100 nM annealed; ATP concentration: 500 uM
The reader will find reported switch fluorescence ratio values listed item by item below.
No unit in the answer, please; the number alone is enough.

>  <Sequence data>
TTTAAATAT

>  <Measured number>
1.03

$$$$
>  <Sequence data>
GATTGGGCTG

>  <Measured number>
0.984

$$$$
>  <Sequence data>
GCTGGTCGCC

>  <Measured number>
1

$$$$
>  <Sequence data>
AGGCGGTGCG

>  <Measured number>
1.02

$$$$
>  <Sequence data>
CACAGAGGGG

>  <Measured number>
1.02

$$$$

Recorded switch fluorescence ratio (sequence `ATATTCGTTG` ): 1.01

Recorded switch fluorescence ratio (sequence `TGCGTTATTA` ): 0.999

Recorded switch fluorescence ratio (sequence `ACATCGGGTG` ): 1.42

Recorded switch fluorescence ratio (sequence `TAGAGGTATG` ): 1.01

Recorded switch fluorescence ratio (sequence `GGGATGGATC` ): 0.993

Recorded switch fluorescence ratio (sequence `ATTTTAGGGG` ): 0.983

Recorded switch fluorescence ratio (sequence `CTGTTTTTGT` ): 1.01

Recorded switch fluorescence ratio (sequence `GAGCTGGCGG` ): 1.05

Recorded switch fluorescence ratio (sequence `GGTAGGAGAT` ): 1.05

Recorded switch fluorescence ratio (sequence `ATGAAAGGAT` ): 1.01

Recorded switch fluorescence ratio (sequence `TATTATGGAG` ): 0.988

----------
System: ATP;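 note: ATP exposure 15 min at 22 °C before imaging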
Assay text: switch fluorescence ratio, 500 uM ATP over buffer (Cy3 cluster intensity, sum of 5 cycles each) (fold (ratio)); higher = stronger signal-on switching upon ATP binding; sequences stand for … in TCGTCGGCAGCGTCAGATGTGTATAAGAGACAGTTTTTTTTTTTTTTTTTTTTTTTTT…TC
Condition description: aptamer strand: ATP DNA aptamer (quencher-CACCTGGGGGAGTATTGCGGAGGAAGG + anchor), 100 nM annealed; ATP concentration: 500 uM
Binary classification by switch fluorescence ratio, with 1 as an inclusive lower bound for TRUE; all other cases are FALSE.

Here's what some known entries look like.
>  <Sequence data>
CGTGCGCATA

>  <Cat>
TRUE

$$$$
>  <Sequence data>
GTTGTACTGG

>  <Cat>
FALSE

$$$$
>  <Sequence data>
ATGTTAGTAC

>  <Cat>
TRUE

$$$$
>  <Sequence data>
GCGCAATCTG

>  <Cat>
TRUE

$$$$

stdin: I'd appreciate it if you could say whether `ACGGGCAAGC` has switch fluorescence ratio at least equal to 1.
stdout: TRUE
